Molecular target: CYP3A4 (Homo sapiens)
Construct: consisting of pooled HLMs (0.5 mg/ml) or RLMs (1 mg/ml) and an NADPH-regenerating system; tissue Corning Gentest Corporation; host or cells: pooled human liver microsomes (n = 20)
Sequence (P08684 whole entry): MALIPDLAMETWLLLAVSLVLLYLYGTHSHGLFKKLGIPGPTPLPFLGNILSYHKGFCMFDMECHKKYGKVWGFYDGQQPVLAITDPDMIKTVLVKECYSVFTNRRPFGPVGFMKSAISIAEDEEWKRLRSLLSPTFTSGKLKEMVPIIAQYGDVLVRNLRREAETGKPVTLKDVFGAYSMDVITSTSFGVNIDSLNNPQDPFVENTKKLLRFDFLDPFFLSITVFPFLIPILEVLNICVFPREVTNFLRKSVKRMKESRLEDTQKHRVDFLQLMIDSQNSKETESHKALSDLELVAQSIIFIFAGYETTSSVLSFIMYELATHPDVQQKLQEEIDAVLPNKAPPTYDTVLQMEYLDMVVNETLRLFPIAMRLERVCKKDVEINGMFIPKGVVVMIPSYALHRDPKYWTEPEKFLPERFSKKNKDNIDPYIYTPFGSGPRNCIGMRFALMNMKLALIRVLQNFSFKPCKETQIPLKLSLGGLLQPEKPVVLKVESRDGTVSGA
Test: biochemical
Type: in vitro ADME
MEASURED PARAMETER: pIC50
Please keep in mind that pIC50 is minus log10 of the molar concentration; only the number is needed.

Q: Request: pIC50, test system CYP3A4 (Homo sapiens), entry CC1=CC(=O)c2c(O)cccc2C1=O [plumbagin, 5-hydroxy-2-methyl-1,4-naphthoquinone]
A: 5.19

* * *

Target: CYP2C11 (Rattus norvegicus, UniProt P08683)
Sequence (P08683 whole entry): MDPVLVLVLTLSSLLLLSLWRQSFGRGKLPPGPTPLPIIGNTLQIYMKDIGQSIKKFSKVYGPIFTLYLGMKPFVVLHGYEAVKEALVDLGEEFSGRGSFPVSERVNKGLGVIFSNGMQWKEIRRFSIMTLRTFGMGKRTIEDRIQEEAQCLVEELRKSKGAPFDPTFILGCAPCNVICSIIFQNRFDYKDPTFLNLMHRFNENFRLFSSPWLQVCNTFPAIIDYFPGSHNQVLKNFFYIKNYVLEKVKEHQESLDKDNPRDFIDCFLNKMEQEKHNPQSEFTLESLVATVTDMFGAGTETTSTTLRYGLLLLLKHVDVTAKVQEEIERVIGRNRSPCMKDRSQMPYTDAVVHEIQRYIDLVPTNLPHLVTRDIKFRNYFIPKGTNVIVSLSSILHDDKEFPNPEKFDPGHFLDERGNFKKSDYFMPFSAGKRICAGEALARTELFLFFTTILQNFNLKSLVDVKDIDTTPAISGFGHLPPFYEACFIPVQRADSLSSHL
MEASURED PARAMETER: IC50 (µM)
Hi! Could you send only the number? It should be in µM, unit omitted.

Q: Request: IC50, test system CYP2C11 (Rattus norvegicus, UniProt P08683), entry CC1=CC(=O)c2c(O)cccc2C1=O [plumbagin, 5-hydroxy-2-methyl-1,4-naphthoquinone]
A: 3.85
